Attribution: paper PMC3817407

MEASURED_ON: T1, ECF33_423
T1 chain: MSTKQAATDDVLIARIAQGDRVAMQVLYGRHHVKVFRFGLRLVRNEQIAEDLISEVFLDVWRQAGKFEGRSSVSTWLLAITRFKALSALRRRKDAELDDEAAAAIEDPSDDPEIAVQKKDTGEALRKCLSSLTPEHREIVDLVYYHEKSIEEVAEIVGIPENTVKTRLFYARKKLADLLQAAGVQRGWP
Kindly return Satisfied if reported fold repression is no lower than 2; return Not satisfied if it is lower.

// inclusive: fold repression at least 2? input: AS22_4450 (protein) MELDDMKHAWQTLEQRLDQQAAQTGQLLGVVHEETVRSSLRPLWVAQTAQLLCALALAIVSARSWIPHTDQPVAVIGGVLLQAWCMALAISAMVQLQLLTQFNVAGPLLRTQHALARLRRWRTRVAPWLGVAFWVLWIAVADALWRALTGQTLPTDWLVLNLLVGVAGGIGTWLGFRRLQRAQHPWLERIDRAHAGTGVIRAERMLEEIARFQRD
Not satisfied

// inclusive: fold repression at least 2? input: AS27_1331 (protein) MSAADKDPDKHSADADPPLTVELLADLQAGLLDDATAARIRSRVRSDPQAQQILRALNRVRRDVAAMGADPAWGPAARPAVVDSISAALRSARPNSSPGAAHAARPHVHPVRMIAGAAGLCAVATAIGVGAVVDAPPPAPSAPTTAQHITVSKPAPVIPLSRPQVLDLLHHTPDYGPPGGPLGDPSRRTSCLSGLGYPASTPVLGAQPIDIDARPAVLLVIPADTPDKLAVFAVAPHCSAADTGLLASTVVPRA
Satisfied

// inclusive: fold repression at least 2? input: AS03_1244 (protein) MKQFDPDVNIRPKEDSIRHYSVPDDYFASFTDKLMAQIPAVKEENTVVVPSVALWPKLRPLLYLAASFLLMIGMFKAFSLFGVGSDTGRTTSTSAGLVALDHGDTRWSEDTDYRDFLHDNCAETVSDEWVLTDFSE
Not satisfied

// inclusive: fold repression at least 2? input: AS31_34 (protein) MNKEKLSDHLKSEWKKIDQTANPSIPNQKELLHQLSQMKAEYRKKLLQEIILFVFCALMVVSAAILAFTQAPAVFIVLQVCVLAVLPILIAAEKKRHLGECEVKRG
Satisfied

// inclusive: fold repression at least 2? input: AS27_4265 (protein) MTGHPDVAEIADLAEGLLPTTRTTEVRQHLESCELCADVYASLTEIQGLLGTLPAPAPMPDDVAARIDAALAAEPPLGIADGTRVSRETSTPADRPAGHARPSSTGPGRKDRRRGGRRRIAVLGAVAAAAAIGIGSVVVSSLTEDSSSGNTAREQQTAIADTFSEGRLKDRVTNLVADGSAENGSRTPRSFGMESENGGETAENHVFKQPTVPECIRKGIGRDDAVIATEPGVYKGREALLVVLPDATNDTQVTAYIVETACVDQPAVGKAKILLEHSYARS
Not satisfied
